tested on: IGROV-1; experiment: NCI tumour cell line growth inhibition, 48 h
The source made the active and inactive calls. Rule as the data show it: active = GI50 up to about 1.1 µM and inactive = higher.
Quantity: GI50

Item "Cc1ccc(OC(=O)N2C/C(=C\c3ccccc3)C(=O)/C(=C/c3ccccc3)C2)cc1" ; assay system IGROV-1; GI50 reported as 40.7 µM (inactive)

The reported IGROV-1 GI50 of "Cc1c2c(n(CC(c3ccccc3)c3ccccc3)c1C)NN=C(C#N)S2(=O)=O" is > 100 µM (inactive)

Measured GI50 for this entry Oc1cc(O)cc(/C=C/c2ccc(O)c(O)c2)c1 [PICEATANNOL] on IGROV-1: 9.64 µM (inactive)

# COc1ccc(-c2cc(-c3ccccc3)n(C3OCC(OC(C)=O)C(OC(C)=O)C3OC(C)=O)c(=S)c2C#N)cc1 (stereo not drawn) with IGROV-1: GI50 is > 100 µM (inactive)

IGROV-1 data for COC1=C2CC(C)CC(OC)[C@@H](OC(=O)CCN)[C@H](C)/C=C(\C)C(OC(N)=O)C(OC)/C=C\C=C(/C)C(=O)NC(=CC1=O)C2=O (stereo partly drawn) ; its GI50: 1.29 µM (inactive)

Measured GI50 for this entry "COc1ccc(/C=N/N=C(\N)NO)c(O)c1" on IGROV-1: 8.77 µM (inactive)

GET /values?item= "c1ccc(OCc2nnc3n2N=C(c2ccccc2)CS3)cc1" &system= IGROV-1 returns GI50: > 100 µM (inactive)

Case O=C(OCC1CO1)c1cccs1 (stereo not drawn) , IGROV-1, GI50 recorded as > 100 µM (inactive)

---

system: SF-268; assay: NCI tumour cell line growth inhibition, 48 h
Activity calls are given as the source filed them. No stated cut-off is given here; in the data, active = GI50 up to about 1.1 µM and inactive = higher.
Kindly supply the reported GI50 values for the records listed here.

// returns GI50 for Clc1ccc(C2=CC(c3ccccc3)N3C(=N[C@H]4CCCC[C@@H]43)N2)cc1 (stereo partly specified) with SF-268; value = 6.14 µM (inactive)

// returns GI50 for C[N+]1(CCC[N+]2(C)CC3C4C=CC(CC4)C3C2)CCOCC1 (stereo unspecified) with SF-268; value = > 100 µM (inactive)

Summary line: CCCCC1=C(C(=O)N2CCOCC2)C2(OCCO2)C1Cl (stereo unspecified) , SF-268, reported GI50 = 40.8 µM (inactive)

Recorded GI50 for "Cc1nc2ccccc2c(=O)n1/N=C(\N=N\c1ccccc1Cl)c1ccccc1" on SF-268 was 46.3 µM (inactive)

Recorded GI50 for C=C[C@@]1(C)CC2CC[C@]3(C)C(C)=CC(=O)CC3[C@]2(C)CC1O (stereo partly specified) on SF-268 was > 100 µM (inactive)

Item "Clc1ccc(-c2c(C3=NCCCN3)nnn2-c2ccc(Cl)cc2)cc1" was tested on SF-268; the reported GI50 is 48.8 µM (inactive)

---

system: SK-MEL-28; experiment: NCI tumour cell line growth inhibition, 48 h
The source made the active and inactive calls. No stated cut-off is given here; in the data, active = GI50 up to about 1.1 µM and inactive = higher. Starred links: 1 amine or outer side, 2 acyl side, 3 side chain; linkers in the order of their positions; H or OH if unused. Positions of bridges follow the written chain, without caps; N, C: chain ends. Non-standard residues stand in square brackets, D forms with d. Residues, ends and D or L forms follow the SMILES beside them. Chains are numbered I, II in the order given. Actinocin(1to9) = Cc1c2oc3c(C)ccc(C(=O)[*:2])c3nc-2c(C(=O)[*:1])c(N)c1=O; aThr = C[C@H](O)[C@H](N)C(=O)O; NMeV = CN[C@H](C(=O)O)C(C)C; Sar = CNCC(=O)O
API: response.call in active, inactive

INPUT: Test call for this compound, please: "O=C(CBr)c1ccc2cc(Br)c3ccccc3c2c1"
OUTPUT: inactive

INPUT: // return assay outcome for C=C(C)C1CC/C(C)=C/CCC2(C)OC2CC/C(CO)=C\C1O (stereo not given)
OUTPUT: inactive

INPUT: Hi, sorry to bother you, what did the test record for Cc1c2oc3c(C)ccc(C(=O)N[C@@H]4C(=O)N[C@H](C(C)C)C(=O)N5CCC[C@H]5C(=O)N(C)CC(=O)N(C)[C@@H](C(C)C)C(=O)O[C@H]4C)c3nc-2c(C(=O)N[C@@H]2C(=O)N[C@H](C(C)C)C(=O)N3CCC[C@H]3C(=O)N(C)CC(=O)N(C)[C@@H](C(C)C)C(=O)O[C@H]2C)c(N)c1=O (I: [aThr][dV]P[Sar][NMeV] / II: [aThr][dV]P[Sar][NMeV]; ester I:1-I:C, II:1-II:C; linker I:N-II:N via Actinocin(1to9)) ?
OUTPUT: active

INPUT: Outcome logged for CC1(CF)SCc2nc3ccccc3n21 (stereo not given) in this assay:
OUTPUT: inactive

INPUT: Assay outcome for "Cc1n[nH]c(=O)n1C1CCCC1" : what was it?
OUTPUT: inactive

INPUT: # fetch the recorded call for CN1C(=O)CC2CCC(=O)N2c2cccnc21 (stereo not given) here
OUTPUT: inactive

INPUT: Which outcome did this test record for the compound "O=C(/C=C1\Nc2ccccc2C(=O)N1c1ccc(Cl)cc1)c1ccncc1" ?
OUTPUT: inactive

INPUT: Each compound tested received a call. Report the one for CC1(C)OC2[C@@H](CO[C@@]3([C@H]4OC(C)(C)O[C@@H]4CO)OC(C)(C)O[C@@H]23)O1 (stereo not given in full) .
OUTPUT: inactive

INPUT: // return assay outcome for "CNC(=O)CN1CC(=O)N(C)C(=O)C1"
OUTPUT: inactive

INPUT: Hey, what did the test say about "C/C(=C/CNc1ncnc2c1ncn2CCC#N)CO" ?
OUTPUT: inactive

INPUT: For "[O-]c1c[n+](CCCC[n+]2cc([O-])on2)no1" , what call appears in the results of this test?
OUTPUT: inactive

INPUT: Answer briefly: the call reported for "CNc1nc(=S)[nH]c2sc3c(c12)CCCC3" in this assay.
OUTPUT: inactive

INPUT: Hi, sorry to bother you, what did the test record for "O=S(=O)(O)c1ccc(/N=N/c2ccc(/N=N/c3c(O)ccc4cc(S(=O)(=O)O)ccc34)cc2)cc1" ?
OUTPUT: inactive

INPUT: Just curious, what result did CCCC(CC)c1cc(O)c(O)cc1C(CC)CCC (stereo not given) get here?
OUTPUT: inactive

INPUT: Returns: the outcome recorded for "Cn1c(=O)c2nc(Nc3ccccc3)[nH]c2n(C)c1=O" in this assay.
OUTPUT: inactive

INPUT: Which result was noted for this compound in the test: "Cn1/c(=N\S(=O)(=O)c2ccccc2)[nH]c2ccccc21"
OUTPUT: inactive

INPUT: Please share the test call associated with "CCOC(=O)NC(C(F)(F)F)(C(F)(F)F)P(=O)(OCC)OCC" .
OUTPUT: inactive

INPUT: How did this test come out for "O=CNc1ccc(S(=O)(=O)c2ccc(NC=O)cc2)cc1" ?
OUTPUT: inactive

INPUT: What was the test verdict on Cn1cc(C2NC(=O)c3ccccc3N2)c2ccccc21 (stereo not given) ?
OUTPUT: active

INPUT: I'd appreciate the recorded outcome for "Cc1[nH]n(-c2ccc(S(=O)(=O)O)cc2)c(=O)c1/N=N/c1ccccc1" from this test.
OUTPUT: inactive

INPUT: // return assay outcome for "CC1(C)OC(=O)C(C#N)=C1C[n+]1ccccc1"
OUTPUT: inactive

INPUT: For this compound, state the assay outcome: "O=C(O)c1ccc(NC(NC(=O)C(C(F)(F)F)C(F)(F)F)(C(F)(F)F)C(F)(F)F)cc1"
OUTPUT: inactive

INPUT: Check the results log: what was the call for O=[N+]([O-])c1cccc(C2N3CCCCC3[C@@H]3c4[nH]c5ccccc5c4CCN23)c1 (stereo not given in full) ?
OUTPUT: inactive

INPUT: Hey, what did the test say about "CSC(SC)=C(C(=O)O)P(=O)(O)O" ?
OUTPUT: inactive

INPUT: // param item: CCC(=O)C(C(C)/C=C/CCSc1ccccc1)C(O)CCCCCC(=O)OC (stereo not given) ; yields the recorded call
OUTPUT: inactive

INPUT: How did this test come out for "CC(=O)n1nc(-c2ccccc2)n(/N=C/c2ccc([N+](=O)[O-])cc2)c1=O" ?
OUTPUT: inactive

INPUT: Which outcome was entered for the compound "C=CCSC1=N/C(=C\c2ccc(C)cc2)C(=O)N1CC=C" in this test?
OUTPUT: inactive

INPUT: Dear colleague, could you share the recorded outcome for "COC(=O)CCCCC/C(=C\C(=O)C(Cl)(Cl)Cl)OC" when you have a moment?
OUTPUT: inactive

INPUT: Recorded call for "CCN(CC)C(=S)SS(=O)(=O)c1ccc(C)cc1" ?
OUTPUT: inactive

INPUT: # lookup: test call for "C=C(C(=O)O)[C@@H]1C[C@@H]2O[C@H]1[C@@H](O)[C@@H](C)CCCC(C)=CCC[C@@]2(C)O"
OUTPUT: inactive

INPUT: Would you mind telling me which call this test gave "N#C/N=C(\N)NCCO" ?
OUTPUT: inactive

INPUT: Could you check what this test reported for "NNC(=O)/C(NC(=O)c1ccccc1)=C(\N)c1ccc(Cl)cc1" ?
OUTPUT: inactive

INPUT: Query: recorded result category for c1ccc2c(c1)ncn2C1CCCCO1 (stereo not given) in this test
OUTPUT: inactive

INPUT: Recorded test call requested for "C=CCOc1ccc(C2(c3ccc(OCC=C)cc3)C(=O)Nc3ccccc32)cc1"
OUTPUT: inactive

INPUT: Which result was noted for this compound in the test: "O=C(O)c1ccc(OCc2nc3cc(C(F)(F)F)ccc3nc2-c2ccccc2)cc1"
OUTPUT: inactive
